Readings of Vd/F for the listed molecules
- Method: Single-dose pharmacokinetics in healthy volunteers under fasting and fed (high-fat breakfast) conditions, plasma concentrations by HPLC-MS, non-compartmental analysis
- Assay type: in vivo, human
- Reported Conditions: female, human, plasma, oral, only CYP2C19*1/*1 subjects, Fed, women, mean ± SD

# Molecule, Vd/F
data = [
    ("COCCCOc1ccnc(C[S+]([O-])c2nc3ccccc3[nH]2)c1C (stereo not drawn)", "0.85 L/kg"),
    ("COc1ccnc(C[S+]([O-])c2nc3ccc(OC(F)F)cc3[nH]2)c1OC (stereo not drawn)", "0.25 L/kg"),
    ("COc1ccc2[nH]c([S+]([O-])Cc3ncc(C)c(OC)c3C)nc2c1 (stereo not drawn)", "0.84 L/kg"),
]
